# TARGET DESC: Peroxisome proliferator-activated receptor gamma (Homo sapiens)
# PROTOCOL NOTES: partial agonism at human PPARgamma receptor – cell-based, luciferase reporter, luminescence, primary screen (AID 504452);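 note: Cos-1 cells carrying PPARgamma and a response element luciferase reporter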
# CONDITION: cell-based PPARg luciferase reporter, at 5 µM
Active and inactive are the calls of the source. Cut-off read from the data, not from the text of the source: active = activation above about 85%; inactive = the rest.
Answer with one of the outcomes active, inactive

What did the test return for CCOc1cccc(C2C(C(=O)c3ccco3)=C(O)C(=O)N2c2nnc(C)s2)c1 (stereo not given) ?
inactive

What did the test return for O=C(O)CC1=C(Nc2ccccc2)C(=O)N(c2ccccc2)C1c1ccc(F)cc1 (stereo not given) ?
inactive

What did the test return for Cc1ccc2nc(N3C(=O)C(O)=C(C(=O)c4ccco4)C3c3ccc(O)cc3)sc2c1 (stereo not given) ?
active

What did the test return for `Cc1ccc(OCC(=O)Nc2ccc(N3CCN(C(=O)c4ccco4)CC3)cc2)cc1` ?
inactive

What did the test return for `O=c1c2cn(Cc3ccc(F)cc3)c3ccccc3c-2nn1Cc1ccc(F)cc1` ?
active
